- Assayed System: GPR55 Q6.58M (Homo sapiens, UniProt Q9Y2T6, Q249M)
- Sequence (Q9Y2T6 whole entry Q249M): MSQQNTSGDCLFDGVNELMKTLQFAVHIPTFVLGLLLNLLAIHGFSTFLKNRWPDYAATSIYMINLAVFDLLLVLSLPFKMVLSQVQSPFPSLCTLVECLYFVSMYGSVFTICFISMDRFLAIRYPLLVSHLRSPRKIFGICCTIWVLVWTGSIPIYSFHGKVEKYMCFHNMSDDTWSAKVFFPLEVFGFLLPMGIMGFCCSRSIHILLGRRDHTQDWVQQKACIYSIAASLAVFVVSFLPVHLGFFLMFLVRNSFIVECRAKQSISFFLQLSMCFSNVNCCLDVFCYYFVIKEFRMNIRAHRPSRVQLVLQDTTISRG
- Experiment Description: SRE luciferase assay, Q6.58M mutant
Parameter: EC50 (nM)
Answers are plain numbers, in nM.

EC50 for Cc1cccc(N2CCN(C(=O)c3cc(S(=O)(=O)N(C)C)ccc3N3CCCC3)CC2)c1C [ML184] is 72

====

- Assayed System: GPR55 F6.55L (Homo sapiens, UniProt Q9Y2T6, F246L)
- Experiment Description: SRE luciferase assay, F6.55L mutant
- Type: cell-based
Parameter: pEC50
Give bare numbers, as −log10 of the molar value.

pEC50 for Cc1cccc(N2CCN(C(=O)c3cc(S(=O)(=O)N(C)C)ccc3N3CCCC3)CC2)c1C is 5.29

====

- Assayed System: GPR55 E3.29A (Homo sapiens, UniProt Q9Y2T6, E98A)
- Experiment Description: SRE luciferase assay, E3.29A mutant
- Type: cell-based
Parameter: EC50

EC50 for Cc1cccc(N2CCN(C(=O)c3cc(S(=O)(=O)N(C)C)ccc3N3CCCC3)CC2)c1C [ML184] is > 30 µM

====

- Assayed System: GPR55 Y3.32F (Homo sapiens, UniProt Q9Y2T6, Y101F)
- Experiment Description: SRF luciferase assay, Y3.32F mutant
- Type: cell-based
Parameter: EC50 (nM)
Numbers only, in nM.

EC50 for Cc1cccc(N2CCN(C(=O)c3cc(S(=O)(=O)N(C)C)ccc3N3CCCC3)CC2)c1C [ML184] is 851

====

- Assayed System: GPR55 Q7.36A (Homo sapiens, UniProt Q9Y2T6, Q271A)
- Experiment Description: SRE luciferase assay, Q7.36A mutant
Parameter: EC50 (nM)
One number for each entry, in nM.

EC50 for Cc1cccc(N2CCN(C(=O)c3cc(S(=O)(=O)N(C)C)ccc3N3CCCC3)CC2)c1C [ML184] is 230

====

- Assayed System: GPR55 C(260)A (Homo sapiens, UniProt Q9Y2T6, C260A)
- Sequence (Q9Y2T6 whole entry C260A): as the sequence (Q9Y2T6 whole entry Q249M) above, with M249Q, C260A counted along it
- Experiment Description: SRE luciferase assay, C
- Type: cell-based
Parameter: pEC50
Answers are plain numbers, as −log10 of the molar value.

pEC50 for Cc1cccc(N2CCN(C(=O)c3cc(S(=O)(=O)N(C)C)ccc3N3CCCC3)CC2)c1C [ML184] is 6.18

====

- Assayed System: GPR55 Y3.32L (Homo sapiens, UniProt Q9Y2T6, Y101L)
- Sequence (Q9Y2T6 whole entry Y101L): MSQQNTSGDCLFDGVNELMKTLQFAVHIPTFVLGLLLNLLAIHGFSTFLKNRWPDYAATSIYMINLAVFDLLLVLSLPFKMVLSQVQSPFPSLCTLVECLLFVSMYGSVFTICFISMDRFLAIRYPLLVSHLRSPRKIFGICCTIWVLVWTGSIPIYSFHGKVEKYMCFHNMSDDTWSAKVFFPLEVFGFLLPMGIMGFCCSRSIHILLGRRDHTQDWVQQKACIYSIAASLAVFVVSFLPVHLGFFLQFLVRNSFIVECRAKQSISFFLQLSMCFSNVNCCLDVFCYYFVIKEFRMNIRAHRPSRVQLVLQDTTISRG
- Experiment Description: SRF luciferase assay, Y3.32L mutant
- Format: cell-based
Parameter: pEC50
Numbers only, as −log10 of the molar value.

pEC50 for Cc1cccc(N2CCN(C(=O)c3cc(S(=O)(=O)N(C)C)ccc3N3CCCC3)CC2)c1C is 3.06

====

- Assayed System: GPR55 F6.55L (Homo sapiens, UniProt Q9Y2T6, F246L)
- Experiment Description: SRF luciferase assay, F6.55L mutant
- Assay type: cell-based
Parameter: EC50 (µM)
One number for each entry, in µM.

Tested on GPR55 F6.55L (Homo sapiens, UniProt Q9Y2T6, F246L), the item Cc1cccc(N2CCN(C(=O)c3cc(S(=O)(=O)N(C)C)ccc3N3CCCC3)CC2)c1C showed EC50 equal to 10.5

====

- Assayed System: GPR55 E3.29L (Homo sapiens, UniProt Q9Y2T6, E98L)
- Sequence (Q9Y2T6 whole entry E98L): as the sequence (Q9Y2T6 whole entry Q249M) above, with E98L, M249Q counted along it
- Experiment Description: SRF luciferase assay, E3.29L mutant
- Type: cell-based
Parameter: EC50

EC50 for Cc1cccc(N2CCN(C(=O)c3cc(S(=O)(=O)N(C)C)ccc3N3CCCC3)CC2)c1C [ML184] is > 30 µM

====

- Assayed System: GPR55 M3.36A (Homo sapiens, UniProt Q9Y2T6, M105A)
- Sequence (Q9Y2T6 whole entry M105A): as the sequence (Q9Y2T6 whole entry Q249M) above, with M105A, M249Q counted along it
- Experiment Description: SRE luciferase assay, M3.36A mutant
- Type: cell-based
Parameter: EC50 (nM)
Give bare numbers, in nM.

EC50 for Cc1cccc(N2CCN(C(=O)c3cc(S(=O)(=O)N(C)C)ccc3N3CCCC3)CC2)c1C is 900

====

- Assayed System: GPR55 C(260)A (Homo sapiens, UniProt Q9Y2T6, C260A)
- Experiment Description: SRF luciferase assay, C
- Type: cell-based
Parameter: EC50 (nM)
Give bare numbers, in nM.

Tested on GPR55 C(260)A (Homo sapiens, UniProt Q9Y2T6, C260A), the item Cc1cccc(N2CCN(C(=O)c3cc(S(=O)(=O)N(C)C)ccc3N3CCCC3)CC2)c1C [ML184] showed EC50 equal to 363

====

- Assayed System: GPR55 Y3.32F (Homo sapiens, UniProt Q9Y2T6, Y101F)
- Experiment Description: SRE luciferase assay, Y3.32F mutant
- Assay type: cell-based
Parameter: EC50 (nM)
Answers are plain numbers, in nM.

EC50 for Cc1cccc(N2CCN(C(=O)c3cc(S(=O)(=O)N(C)C)ccc3N3CCCC3)CC2)c1C is 1660

====

- Assayed System: GPR55 Q7.36N (Homo sapiens, UniProt Q9Y2T6, Q271N)
- Sequence (Q9Y2T6 whole entry Q271N): as the sequence (Q9Y2T6 whole entry Y101L) above, with L101Y, Q271N counted along it
- Experiment Description: SRE luciferase assay, Q7.36N mutant
Parameter: EC50 (µM)
Numbers only, in µM.

EC50 for Cc1cccc(N2CCN(C(=O)c3cc(S(=O)(=O)N(C)C)ccc3N3CCCC3)CC2)c1C is 0.154

====

- Assayed System: GPR55 C(10)A (Homo sapiens, UniProt Q9Y2T6, C10A)
- Experiment Description: SRF luciferase assay, C
- Assay type: cell-based
Parameter: EC50
Lab note: write values as number then unit, every time.

EC50 for Cc1cccc(N2CCN(C(=O)c3cc(S(=O)(=O)N(C)C)ccc3N3CCCC3)CC2)c1C is 0.554 µM

====

- Assayed System: GPR55 F6.48A (Homo sapiens, UniProt Q9Y2T6, F239A)
- Sequence (Q9Y2T6 whole entry F239A): as the sequence (Q9Y2T6 whole entry Y101L) above, with L101Y, F239A counted along it
- Experiment Description: SRE luciferase assay, F6.48A mutant
- Assay type: cell-based
Parameter: pEC50
Answers are plain numbers, as −log10 of the molar value.

pEC50 for Cc1cccc(N2CCN(C(=O)c3cc(S(=O)(=O)N(C)C)ccc3N3CCCC3)CC2)c1C [ML184] is 6.29

====

- Assayed System: GPR55 H(170)F (Homo sapiens, UniProt Q9Y2T6, H170F)
- Experiment Description: SRE luciferase assay, H
Parameter: EC50 (nM)
Give bare numbers, in nM.

EC50 for Cc1cccc(N2CCN(C(=O)c3cc(S(=O)(=O)N(C)C)ccc3N3CCCC3)CC2)c1C is 341

====

- Assayed System: GPR55 F6.48A (Homo sapiens, UniProt Q9Y2T6, F239A)
- Experiment Description: SRF luciferase assay, F6.48A mutant
- Type: cell-based
Parameter: EC50 (nM)
Numbers only, in nM.

Tested on GPR55 F6.48A (Homo sapiens, UniProt Q9Y2T6, F239A), the item Cc1cccc(N2CCN(C(=O)c3cc(S(=O)(=O)N(C)C)ccc3N3CCCC3)CC2)c1C showed EC50 equal to 335

Origin of values: paper PMC5338039
